# Test system: PRMT1 (protein arginine N-methyltransferase 1)
# Method: PRMT1 binders on small-molecule microarrays, primary screen, biochemical, small-molecule microarray, 635 nm fluorescence (AID 1088);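 note: binding of Prmt1 protein to compounds spotted on small-molecule microarray slides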
# Assay Conditions: small-molecule microarray binding, higher = more signal
Items are presented alongside their recorded composite z-score.

Molecule: CCCNC(=O)OC[C@H]1O[C@H](CCON=Cc2ccc(C(=O)N3[C@H](c4ccc(C)cc4)[C@@H](C)CC[C@H]3C(=O)OC)cc2)C=C[C@@H]1Oc1ccc(OC)cc1
composite z-score: 1.15
//
Molecule: C=Cc1ccc([C@H]2N[C@H](C(=O)O)CC[C@@H]2C)cc1
composite z-score: -1.29
//
Molecule: CC(C)=CCCC(C)=CCON=C1C[C@@H](O)[C@@H](O)[C@@H]2[C@@H]3C(=O)N(C(C)(C)C)C(=O)[C@@H]3CC[C@@H]12
composite z-score: -0.305
//
Molecule: CON=C(C)CCC(=O)OC[C@H]1O[C@H](c2ccccc2)C=C[C@@H]1Oc1ccc(OC)cc1
composite z-score: 0.0846
//
Molecule: COC(=O)[C@H](C)NC(=O)CCC1CC(OC(=O)NCc2ccc3c(c2)OCO3)CC2(CCCC(COC(=O)NCC3CCCCC3)O2)O1 (stereo partly specified)
composite z-score: 1.46
//
Molecule: C[C@H](ON=C1[C@H]2CCn3c(=O)n(-c4ccccc4)c(=O)n3[C@H]2[C@H](O)[C@@H]2O[C@H]12)c1cn([C@H](CO)Cc2ccccc2)nn1
composite z-score: 0.171
//
Molecule: COc1ccc(O[C@H]2C=C[C@@H](c3ccccc3)O[C@@H]2COC(=O)CCC(C)=NO[C@@H]2O[C@H](COC(C)=O)[C@@H](OC(C)=O)[C@H](OC(C)=O)[C@H]2OC(C)=O)cc1
composite z-score: 1.44
//
Molecule: CCOC(=O)[C@H](Cc1ccccc1)NC(=O)CCC1CC(OC(=O)NCCc2ccc(F)cc2)CC2(CCCC(COC(=O)NCCCN3CCCC3=O)O2)O1 (stereo partly specified)
composite z-score: 1.37
//
Molecule: CO[C@H]1COC(=O)CC=C[C@@H](C)[C@H](OC)COC(=O)CCC[C@@H]1C
composite z-score: 0.76
//
Molecule: CC(=O)Nc1ccc([C@@H]2N[C@H](C(=O)O)CC[C@H]2C)cc1
composite z-score: 0.0579
//
Molecule: CCc1cc2c(nc1CC)CCN(CCC(C)=NO[C@H](C)c1cn([C@@H]3COC[C@H]3O)nn1)C2
composite z-score: -0.104

----------
# System Tested: Homeobox protein Hox-A13 (Mus musculus)
# Method: inhibitors of HoxA13-DNA binding, primary screen, biochemical, fluorescence polarization, labeled oligonucleotide (AID 1185)
# Assay Conditions: 15 min, higher = more signal, called active from +8 up or from −8 down
Items are presented alongside their recorded z-score.
Measured Parameter: z-score

Molecule: COCOc1ccc(Br)cc1C(=O)[C@@H]1O[C@H]1c1cccc(OC)c1
System Tested: Homeobox protein Hox-A13 (Mus musculus)
Measured Parameter: z-score
Measurement: -1.99

Molecule: CC(C)=CCCC(C)=CCON=C1C[C@@H](O)[C@@H](O)[C@@H]2[C@@H]3C(=O)N(c4ccc(F)cc4F)C(=O)[C@@H]3CC[C@H]12
System Tested: Homeobox protein Hox-A13 (Mus musculus)
Measured Parameter: z-score
Measurement: -2.5

Molecule: COC(=O)C1=C(C)N(Cc2ccccc2)[C@]23O[C@](C(=O)OC)(C(=O)N2[C@@H]1c1ccccc1)C(C(=O)OC)=C3C(=O)OC
System Tested: Homeobox protein Hox-A13 (Mus musculus)
Measured Parameter: z-score
Measurement: -3.67

Molecule: COC(=O)CC=C[C@@H](C)[C@@H](C=NO[C@@H](C)c1cn([C@H](CO)Cc2ccccc2)nn1)OC
System Tested: Homeobox protein Hox-A13 (Mus musculus)
Measured Parameter: z-score
Measurement: -0.41

Molecule: COC(=O)[C@@H]1CC[C@H](C)[C@@H](c2ccc(C)cc2)N1C(=O)c1ccc(C=NO[C@@H](C)c2cn([C@H](CO)Cc3ccccc3)nn2)cc1
System Tested: Homeobox protein Hox-A13 (Mus musculus)
Measured Parameter: z-score
Measurement: -5.13

Molecule: CCN1C(=O)[C@H]2[C@H]3[C@H](O)[C@H](O)CC(=O)[C@@H]3CC[C@H]2C1=O
System Tested: Homeobox protein Hox-A13 (Mus musculus)
Measured Parameter: z-score
Measurement: 0.202

Molecule: CCOC(=O)[C@H](Cc1ccccc1)NC(=O)CCC1CC(OC(=O)NCc2cccc3ccccc23)CC2(CCCC(COC(=O)NCc3ccccc3)O2)O1 (some centres not stated)
System Tested: Homeobox protein Hox-A13 (Mus musculus)
Measured Parameter: z-score
Measurement: -1.5

----------
# Tested on: Inhibin beta A chain (activin A)
# Method: INHBA (activin A) binders on microarrays, primary screen, biochemical, small-molecule microarray, 635 nm fluorescence scan (AID 1107);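 note: mouse activin A protein probed at 4.33 µg/mL on printed slides; score merges bound-protein fluorescence near 667 nm with spot signal-to-noise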
# Assay Conditions: small-molecule microarray binding, higher = more signal

Compound: COC(=O)C1=C(C)N(Cc2ccccc2)[C@]23O[C@](C(=O)OC)(C(=O)N2[C@@H]1c1ccccc1)C(C(=O)OC)=C3C(=O)OC
composite z-score: 0.226
//
Compound: CO[C@@H]1COC(=O)[C@H](CCSC)NC(=O)CC=C[C@@H](C)COC(=O)CCC[C@H]1C
composite z-score: -1.51
//
Compound: CC(CCN1CCCCc2nc(C)c(C)cc21)=NOC[C@@H](O)COCc1ccco1
composite z-score: 1.79
//
Compound: C=CC[C@@H]1C=C[C@H](ON=C2[C@H]3CCn4c(=O)n(-c5ccccc5)c(=O)n4[C@H]3[C@H](O)[C@@H]3O[C@H]23)[C@@H](CO)O1
composite z-score: 0.376
//
Compound: CCOC(=O)[C@H](Cc1ccccc1)NC(=O)CCC1CC(OC(=O)NCCc2ccc(F)cc2)CC2(CCCC(COC(=O)NCc3ccccc3)O2)O1 (stereo partly specified)
composite z-score: 0.0158
//
Compound: COC(=O)[C@@H]1CC[C@H](C)[C@@H](c2ccc(C)cc2)N1C(=O)c1ccc(C=NO[C@H](C)c2cn([C@@H]3COC[C@H]3O)nn2)cc1
composite z-score: -1.14

----------
# Method: MM1S cell viability effects, profiling panel, calcein-AM fluorescence, 48 h, basal (AID 1165);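 note: viability of MM1S multiple myeloma cells under basal unstimulated conditions; test concentration not given here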
# Assay Conditions: higher = more signal
Output satisfied for z-score not less than -0.06; output not satisfied otherwise.

Compound: COC(=O)[C@H](C)NC(=O)CCC1CC(OC(=O)NCc2ccc3c(c2)OCO3)CC2(CCCC(COC(=O)NCCc3ccccc3OC)O2)O1 (stereo partly specified)
Label Value: not satisfied
--
Compound: CC(C)=NOC[C@@H](C)[C@H](OCc1ccccc1)C(C)C
Label Value: not satisfied
--
Compound: CO[C@@H]1COC(=O)[C@@H]2CCCN2C(=O)[C@@H](C)COC(=O)CC=C[C@H]1C
Label Value: satisfied
--
Compound: CCOC(=O)[C@H](Cc1ccccc1)NC(=O)CCC1CC(OC(=O)NCCc2ccc(F)cc2)CC2(CCCC(COC(=O)NCC3CCCCC3)O2)O1 (stereo partly specified)
Label Value: not satisfied
--
Compound: CON=C1[C@H]2CCn3c(=O)n(-c4ccccc4)c(=O)n3[C@H]2[C@H](O)[C@@H]2O[C@H]12
Label Value: not satisfied
--
Compound: COc1ccc(O[C@H]2C=C[C@@H](c3ccccc3)O[C@@H]2CON=C(C)CCC(=O)OC[C@H]2O[C@H](c3ccccc3)C=C[C@@H]2Oc2ccc(OC)cc2)cc1
Label Value: not satisfied
--
Compound: CCOC(=O)[C@H](Cc1ccccc1)NC(=O)CCC1CC(OC(=O)NCc2cccc3ccccc23)CC2(CCCC(COC(=O)NCc3cccc(C(F)(F)F)c3)O2)O1 (stereo partly specified)
Label Value: not satisfied
--
Compound: Cc1ccc(S(=O)(=O)OC[C@H]2CN3[C@H](c4ccc(Br)cc4)[C@@H](C)CC[C@H]3C(=O)O2)cc1
Label Value: not satisfied
--
Compound: CC(=O)Nc1ccc([C@@H]2N[C@H](C(=O)O)CC[C@H]2C)cc1
Label Value: satisfied
--
Compound: COC(=O)C=CCCc1coc(C=CCNC(=O)OC)n1
Label Value: satisfied
--
Compound: O=c1n(Cc2cc3c(cc2Cl)OCO3)c(=O)n2n1CC[C@@H]1C(=NOCc3ccccc3)[C@H]3O[C@H]3[C@@H](O)[C@@H]12
Label Value: not satisfied
--
Compound: C[C@@H]1C=CCC(=O)OC[C@H]2O[C@@H](C=C[C@@H]2O)[C@H](C)C=CCC(=O)OC1
Label Value: satisfied
--
Compound: COC(=O)CC=C[C@@H](C)[C@@H](C=NOCC[C@@H]1C=C[C@H](OC(C)=O)[C@@H](COC(C)=O)O1)NS(=O)(=O)c1ccc(C)cc1
Label Value: satisfied
--
Compound: C[C@@H](c1ccccc1)N1C(=O)[C@H]2[C@H]3[C@H](O)[C@H](O)CC(=NO[C@@H]4O[C@H](CO)[C@@H](O)[C@H](O)[C@H]4O)[C@@H]3CC[C@H]2C1=O
Label Value: satisfied
--
Compound: CC[C@@H](c1ccccc1)n1c(=O)n2n(c1=O)[C@H]1[C@H](O)[C@@H]3O[C@@H]3C(=O)[C@H]1CC2
Label Value: not satisfied
--
Compound: CC(C)CON=C1C[C@@H](O)[C@@H](O)[C@@H]2[C@@H]3C(=O)N(C[C@@H]4CCCO4)C(=O)[C@@H]3CC[C@@H]12
Label Value: not satisfied
--
Compound: CC[C@@H](c1ccccc1)n1c(=O)n2n(c1=O)[C@H]1[C@H](O)[C@@H]3O[C@@H]3C(=NOC[C@@H](O)COCc3ccco3)[C@H]1CC2
Label Value: satisfied
--
Compound: C[n+]1ccc(-c2ccc(CO)cc2)cc1
Label Value: not satisfied
--
Compound: CCOC(=O)[C@H](Cc1ccccc1)NC(=O)CCC1CC(OC(=O)NCCc2ccc(F)cc2)CC2(CCCC(COC(=O)NCCCN3CCCC3=O)O2)O1 (stereo partly specified)
Label Value: satisfied
--
Compound: C#CCCCON=C1[C@H]2CCn3c(=O)n(-c4ccccc4)c(=O)n3[C@H]2[C@H](O)[C@@H]2O[C@H]12
Label Value: satisfied
--
Compound: CCCCC#C[C@@H]1C=C[C@H](Oc2ccc(C(=O)OC)cc2)[C@@H](COC(=O)OCC)O1
Label Value: not satisfied

The reported measurements were obtained from PubChem BioAssay.
